Protein target, amino acids: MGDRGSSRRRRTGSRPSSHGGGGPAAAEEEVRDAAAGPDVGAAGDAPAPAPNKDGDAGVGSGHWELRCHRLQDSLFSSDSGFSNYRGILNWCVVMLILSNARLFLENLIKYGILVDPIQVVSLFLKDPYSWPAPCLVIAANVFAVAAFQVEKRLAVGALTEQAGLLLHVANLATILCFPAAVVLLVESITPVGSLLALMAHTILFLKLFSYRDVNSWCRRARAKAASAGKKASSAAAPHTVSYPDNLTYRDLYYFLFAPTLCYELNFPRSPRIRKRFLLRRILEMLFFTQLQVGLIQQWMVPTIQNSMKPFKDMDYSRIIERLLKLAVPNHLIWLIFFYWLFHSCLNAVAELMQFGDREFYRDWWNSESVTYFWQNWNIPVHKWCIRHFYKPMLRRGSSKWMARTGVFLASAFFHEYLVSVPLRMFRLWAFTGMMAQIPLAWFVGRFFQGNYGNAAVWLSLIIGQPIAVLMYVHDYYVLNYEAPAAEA
Please provide measured pIC50 for the entries that follow.
Reminder that pIC50 is minus the log10 of a molar concentration.

Inquiry: Name the recorded pIC50 of the item O=C(CCCc1cccnc1)Nc1ccc(N2CCN(C(=O)Nc3c(Cl)cccc3Cl)CC2)cc1 in your answer.
Reply text: 7.47

Inquiry: Name the recorded pIC50 of the item CSc1ccccc1NC(=O)N1CCN(c2ccc(NC(=O)CCCc3ccccc3)cc2)CC1 in your answer.
Reply text: 5.84

Inquiry: Name the recorded pIC50 of the item CC(=O)NCCNC(=O)c1cc(Cl)c(NC(=O)N2CCN(c3ccc(NC(=O)CCCc4ccccc4)cc3)CC2)c(Cl)c1 in your answer.
Reply text: 7.29

Inquiry: Name the recorded pIC50 of the item O=C(CNCc1ccccc1)Nc1ccc(C2CCN(C(=O)Nc3c(Cl)cccc3Cl)CC2)cc1 in your answer.
Reply text: 6.67

====

propertyMeasured: IC50 (nM)
Numbers only; they are read as nM.

Inquiry: Fetch value of IC50 on human DGAT1 (Homo sapiens, UniProt O75907) for CS(=O)(=O)N1CCN(CCC(=O)Nc2ccc(N3CCN(C(=O)Nc4c(Cl)cccc4Cl)CC3)cc2)CC1 .
Reply text: 603

Inquiry: Fetch value of IC50 on human DGAT1 (Homo sapiens, UniProt O75907) for C=CCN(CCC(=O)Nc1ccc(N2CCN(C(=O)Nc3c(Cl)cccc3Cl)CC2)cc1)c1ccccc1Cl .
Reply text: 8.51

Inquiry: Fetch value of IC50 on human DGAT1 (Homo sapiens, UniProt O75907) for COc1cc(Cl)c(NC(=O)N2CCN(c3ccc(NC(=O)CCCc4ccccc4)cc3)CC2)c(Cl)c1 .
Reply text: 6.17

Inquiry: Fetch value of IC50 on human DGAT1 (Homo sapiens, UniProt O75907) for O=C(NCc1ccncc1)c1ccc(N2CCN(C(=O)Cc3c(Cl)cccc3Cl)CC2)cc1 .
Reply text: 191

Inquiry: Fetch value of IC50 on human DGAT1 (Homo sapiens, UniProt O75907) for CN(C)C(=O)CN(C)C(=O)c1cc(Cl)c(NC(=O)N2CCN(c3ccc(NC(=O)CCCc4ccccc4)cc3)CC2)c(Cl)c1 .
Reply text: 14.8

Inquiry: Fetch value of IC50 on human DGAT1 (Homo sapiens, UniProt O75907) for C=CCN(CC(=O)Nc1ccc(N2CCN(C(=O)Nc3c(Cl)cccc3Cl)CC2)cc1)Cc1ccc(F)cc1 .
Reply text: 18.2

Inquiry: Fetch value of IC50 on human DGAT1 (Homo sapiens, UniProt O75907) for CS(=O)(=O)N1CCN(CC(=O)Nc2ccc(N3CCN(C(=O)Nc4c(Cl)cccc4Cl)CC3)cc2)CC1 .
Reply text: 692

Inquiry: Fetch value of IC50 on human DGAT1 (Homo sapiens, UniProt O75907) for O=C(CCCc1ccccc1)Nc1ccc(N2CCN(C(=O)Nc3c(Cl)cc(Br)c4c3CCO4)CC2)cc1 .
Reply text: 331

Inquiry: Fetch value of IC50 on human DGAT1 (Homo sapiens, UniProt O75907) for CC(NCCCO)c1cc(Cl)c(NC(=O)N2CCN(c3ccc(NC(=O)CCCc4ccccc4)cc3)CC2)c(Cl)c1 (stereo not drawn) .
Reply text: 10.7

Inquiry: Fetch value of IC50 on human DGAT1 (Homo sapiens, UniProt O75907) for COc1ccc(CNC(=O)c2ccc(N3CCN(C(=O)Cc4c(Cl)cccc4Cl)CC3)cc2)c(OC)c1 .
Reply text: 42.7

Inquiry: Fetch value of IC50 on human DGAT1 (Homo sapiens, UniProt O75907) for O=C(CN1CCN(c2cccc(C(F)(F)F)c2)CC1)Nc1ccc(C2CCN(C(=O)Nc3c(Cl)cccc3Cl)CC2)cc1 .
Reply text: 398

Inquiry: Fetch value of IC50 on human DGAT1 (Homo sapiens, UniProt O75907) for O=C(CCc1ccco1)Nc1ccc(N2CCN(C(=O)Nc3c(Cl)cccc3Cl)CC2)cc1 .
Reply text: 18.2

Inquiry: Fetch value of IC50 on human DGAT1 (Homo sapiens, UniProt O75907) for O=C(CCc1ccccn1)Nc1ccc(N2CCN(C(=O)Nc3c(Cl)cccc3Cl)CC2)cc1 .
Reply text: 550

Inquiry: Fetch value of IC50 on human DGAT1 (Homo sapiens, UniProt O75907) for COc1ccc(CNC(=O)c2ccc(N3CCN(C(=O)Nc4c(Cl)cc(CN5CCCC5)cc4Cl)CC3)cc2)cc1 .
Reply text: 46.8

Inquiry: Fetch value of IC50 on human DGAT1 (Homo sapiens, UniProt O75907) for C=CCC(N)C(=O)Nc1ccc(C2CCN(C(=O)Nc3c(Cl)cccc3Cl)CC2)cc1 (stereo not drawn) .
Reply text: 10500

Value source: patent US8981094B2
